Test system: normal FL cells
Test: cells
Type: cell-based
Conditions: FL normal cells, MTT; read-out: IC50
Could you please report measured IC50 for the items listed next?
Form entry: value (µg/mL) — number only.

Lookup result for Cc1cccc(-c2cc(-c3cccnc3)nc(N[C@@H]3O[C@H](CO)[C@@H](O)[C@H](O)[C@H]3O)n2)c1 [Compound 5] ; measured IC50: 25.3

Lookup result for CC(=O)OC[C@H]1O[C@@H](Nc2nc(-c3cccc(C)c3)cc(-c3ccccn3)n2)[C@H](OC(C)=O)[C@@H](OC(C)=O)[C@@H]1OC(C)=O [Compound 13] ; measured IC50: 18.2

Lookup result for Cc1ccccc1-c1cc(-c2cccnc2)nc(N[C@@H]2O[C@H](CO)[C@@H](O)[C@H](O)[C@H]2O)n1 [Compound 2] ; measured IC50: 457
